System name: T1, Recombinant MBP-mutCALR Type 1 fusion protein (human)
T1 construct: custom made at Cepter; also called recombinant mutCALR protein
Assay notes: SPR, IgG captured, 1:1 fit, Exp. 2
Reported values of koff for individual entries
Express your answer in s⁻¹, writing the number without its unit.

Previously resolved entries follow.
>  <Binder>
anti-mutCALR antibody clone 171 (antibody, human IgG1, lambda, N297A, V domains shown, human IgG1 N297A variant of clone 17) VH: EVQLVQSGAEVKKPGASVKVSCKVSGYTLTELSMQWVRQAPGKGLEWMGGFDPDAGETMYAEKFQGRLTVTEDTSTDTVYMELRSLTSEDTALYFCATSPGYDFFDYWGQGTLVTVSS VL: SYVLTQPPSVSVAPGQTARITCGGSDIGDEIVHWYQQKPGQAPVLVVYDDSDRPSGIPERFSGSNSGNTATLTISRAQAGDEADYYCQVWDSSSDHLIFGGGTKLTVLG

>  <Unit>
s⁻¹

>  <Numeric value>
0.0109

$$$$
>  <Binder>
anti-mutCALR antibody clone 40 (antibody, human IgG1, lambda, V domains shown, human IgG1) VH: EVQLVQSGAEVKKPGASVKVSCKVSGYTLTESSMHWVRQAPGKGLEWMGLVDPEDGETIYAQKFQGRVTMTEDTSTDTAYMELSSLRSEDTAVYYCAREEWSGDGDDAFDIWGQGTMVTVSS VL: QSVLTQPPSVSAAPGQKVTISCSGSSSNIGSYSVSWYQQLPGTAPKLLIYDNNKRPSGIPDRFSGSNSGTSATLGITGLQTGDEADYYCGTWDSSLSAWVFGGGTKLTVLG

>  <Unit>
s⁻¹

>  <Numeric value>
0.00121

$$$$
>  <Binder>
anti-mutCALR antibody clone 182 (antibody, human IgG1, lambda, N297A, V domains shown, human IgG1 N297A variant of clone 17) VH: EVQLVQSGAEVKKPGASVKVSCKVSGYTLTELSMQWVRQAPGKGLEWMGGFDPDSGETMYAEKFQGRLTVTEDTSTDTVYMELRSLTSEDTALYFCATSPGYDFFDYWGQGTLVTVSS VL: SYVLTQPPSVSVAPGQTARITCGGSDIGDEIVHWYQQKPGQAPVLVVYDDSDRPSGIPERFSGSNSGNTATLTISRVEAGDEADYYCQVWDSSSDHLIFGGGTKLTVLG

>  <Unit>
s⁻¹

>  <Numeric value>
0.00692

$$$$
>  <Binder>
anti-mutCALR antibody clone 65 (antibody, human IgG1, lambda, N297A, V domains shown, human IgG1 N297A variant of clone 6) VH: EVQLVQSGAEVKKPGASVKVSCKVSGYTLTELSMQWVRQAPGKGLEWMGGFDPDDGETMYAEKFQGRLTVTEDTSTDTVYMELRSLTSEDTALYFCATSPGYDFFDYWGQGTLVTVSS VL: SYVLTQPPSVSVAPGKTARITCTGTSSDVGGYNYVSWYQQKPGQAPVLVVYEVSNRPSGIPERFSGSNSGNTATLTISRVEAGDEADYYCQVWDSSNDLLIFGGGTKLTVLG

>  <Unit>
s⁻¹

>  <Numeric value>
0.00231

$$$$
>  <Binder>
anti-mutCALR antibody clone 129 (antibody, human IgG1, lambda, N297A, V domains shown, human IgG1 N297A variant of clone 15) VH: EVQLVQSGAEVKKPGASVKVSCKVSGYTLTELSMQWVRQAPGKGLEWMGGFDPDDGETMYAEKFQGRLTVTEDTSTDTVYMELSSLRSEDTAVYFCATSPGYDFFDYWGQGTLVTVSS VL: SYELTQPPSVSVAPGKTARITCGGDNIGSKSVHWYQQKPGQAPVLVVYDDSDRPSGIPERFSGSNSGNTATLTINRVEAGDEADYYCQVWDSSNDLLIFGGGTKLTVLG

>  <Unit>
s⁻¹

>  <Numeric value>
0.00527

$$$$
>  <Binder>
anti-mutCALR antibody clone 68 (antibody, human IgG1, lambda, N297A, V domains shown, human IgG1 N297A variant of clone 6) VH: EVQLVQSGAEVKKPGASVKVSCKVSGYTLTELSMQWVRQAPGKGLEWMGGFDPDEGETMYAEKFQGRLTVTEDTSTDTVYMELRSLTSEDTALYFCATSPGYDFFDYWGQGTLVTVSS VL: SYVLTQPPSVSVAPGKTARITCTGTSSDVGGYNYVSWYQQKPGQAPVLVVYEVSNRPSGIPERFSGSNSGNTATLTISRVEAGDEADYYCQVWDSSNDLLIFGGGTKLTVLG

>  <Unit>
s⁻¹

>  <Numeric value>
0.00166

$$$$
>  <Binder>
anti-mutCALR antibody clone 51 (antibody, human IgG1, lambda, V domains shown, human IgG1) VH: EVQLVQSGAEVKKPGSSVKVSCKASGGTFSSYAISWVRQAPGQGLEWMGGIIPIFGTANYAQKFQGRVTITADESTSTAYMELSSLRSEDTAVYYCASSPLRGSGWYWHYYYGMDVWGQGTTVTVSS VL: SYELTQPPSVSVAPGKTARITCGGNKIGTKSVHWYQQKPGQAPVLVIYQDSKRPSGIPERFSGSNSGNTATLTISGTQAMDEADYYCQAWGSSTVVFGGGTKLTVLG

>  <Unit>
s⁻¹

>  <Numeric value>
0.000524

$$$$
>  <Binder>
anti-mutCALR antibody clone 73 (antibody, human IgG1, lambda, N297A, V domains shown, human IgG1 N297A variant of clone 6) VH: EVQLVQSGAEVKKPGASVKVSCKVSGYTLTELSMQWVRQAPGKGLEWMGGFDPDEGETMYAEKFQGRLTVTEDTSTDTVYMELSSLRSEDTAVYFCATSPGYDFFDYWGQGTLVTVSS VL: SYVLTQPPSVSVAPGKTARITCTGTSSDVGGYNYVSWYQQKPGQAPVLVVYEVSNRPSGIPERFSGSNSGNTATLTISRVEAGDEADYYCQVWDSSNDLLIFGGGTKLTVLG

>  <Unit>
s⁻¹

>  <Numeric value>
0.00546

$$$$
>  <Binder>
anti-mutCALR antibody clone 60 (antibody, human IgG1, lambda, N297A, V domains shown, human IgG1 N297A variant of clone 6) VH: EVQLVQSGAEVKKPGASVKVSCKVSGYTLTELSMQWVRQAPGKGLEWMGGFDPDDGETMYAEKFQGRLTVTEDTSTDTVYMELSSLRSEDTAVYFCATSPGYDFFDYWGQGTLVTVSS VL: QSALTQPASVSGSPGQSITISCTGTSSDVGGYNYVSWYQQHPGKAPKLMIYEVSNRPSGVSNRFSGSNSGNTATLTINRVEAGDEADYYCQVWDSSNDLLIFGGGTKLTVLG

>  <Unit>
s⁻¹

>  <Numeric value>
0.00166

$$$$

Note: attention shifts to another entry.
Ask | For the binder anti-mutCALR antibody clone 80 (antibody, human IgG1, lambda, N297A, V domains shown, human IgG1 N297A variant of clone 6) VH: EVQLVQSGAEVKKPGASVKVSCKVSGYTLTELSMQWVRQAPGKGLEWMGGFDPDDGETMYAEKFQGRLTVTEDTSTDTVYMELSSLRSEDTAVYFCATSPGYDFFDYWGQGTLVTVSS VL: SYVLTQPPSVSVAPGKTARITCGGNNIGSKSVHWYQQKPGQAPVLVVYDDSDRPSGIPERFSGSNSGNTATLTISRVEAGDEADYYCQVWDSSNDLLIFGGGTKLTVLG , what koff is on record?
Reply | 0.00248

Hey, just so you know, these numbers are from patent US20230272055A1.
